The reported measurements were obtained from patent US9840515B2.

Provide the recorded melting point for the entries that follow.

Look up melting point for the entries below, preserving their order.
1. COc1nc(OC)c2sc3c(c2n1)SCCNC3=O [kmg-NB5-13C]
2. CC(=O)Oc1ccc2oc3c(c2c1)CCCN(C(C)=O)C3=O [kb-NB123-45-1]

1. 288 °C (dec.)
2. 155 to 157 °C

Please go through the list and note melting point for each compound.
1. O=C1NCCC(=NNc2ccccc2)c2c1oc1ccc(O)cc21 [kb-NB142-05]
2. COc1ccc2oc3c(c2c1)CCCNC3=O [kb-NB77-56]
3. COc1ccc2sc3c(c2c1)OCCCNC3=O [kb-NB184-57]
4. O=C1NCCCc2c1oc1ccc(O)c(Cl)c21 [kb-NB77-88]
5. O=C1NCCSc2c1sc1ccc(O)c(I)c21 [kb-NB165-31]
6. O=C1NCCc2c1oc1ccc(O)cc21 [kb-NB123-23A]
7. O=C1NCCSc2c1sc1ccc(OCc3ccccc3)cc21 [kb-NB123-66]

234 to 236 °C
261 to 263 °C
233 to 237 °C
> 300 °C
128 °C (dec.)
265 to 268 °C
247 to 249 °C

Give one value of melting point per listed compound.
1. O=c1oc2ccc(O)c(Cl)c2c2c1NCCC2 [kb-NB96-47-1]
2. O=C1NCCCc2c1oc1ccc(O)c(F)c21 [kb-NB96-21]
3. O=C1NCCCc2c1oc1cc(Cl)c(O)cc21 [kb-NB96-47-5]
4. O=C1NCCc2c1[nH]c1ccc(O)cc21 [kb-NB123-59]
5. C=CCOc1ccc2oc(=O)c3c(c2c1)CCCN3 [kb-NB77-83]
6. COc1ccc2oc3c(c2c1)CCN(C)C3=O [kb-NB123-37]
7. O=C1NCCC(=NOCc2ccccc2)c2c1oc1ccc(O)cc21 [kb-NB142-10]
8. CC(C)(C)[Si](C)(C)Oc1ccc2oc(=O)c3c(c2c1)CCCN3

1: 211 to 213 °C; 2: > 300 °C; 3: 327 to 332 °C; 4: 244 to 247 °C; 5: 90 to 91 °C; 6: 168 to 172 °C; 7: 103 to 110 °C; 8: 117 to 119 °C
